# TARGET_UNDER_TEST: hERG channel (Homo sapiens (Human))
# Sequence (Q12809 whole entry): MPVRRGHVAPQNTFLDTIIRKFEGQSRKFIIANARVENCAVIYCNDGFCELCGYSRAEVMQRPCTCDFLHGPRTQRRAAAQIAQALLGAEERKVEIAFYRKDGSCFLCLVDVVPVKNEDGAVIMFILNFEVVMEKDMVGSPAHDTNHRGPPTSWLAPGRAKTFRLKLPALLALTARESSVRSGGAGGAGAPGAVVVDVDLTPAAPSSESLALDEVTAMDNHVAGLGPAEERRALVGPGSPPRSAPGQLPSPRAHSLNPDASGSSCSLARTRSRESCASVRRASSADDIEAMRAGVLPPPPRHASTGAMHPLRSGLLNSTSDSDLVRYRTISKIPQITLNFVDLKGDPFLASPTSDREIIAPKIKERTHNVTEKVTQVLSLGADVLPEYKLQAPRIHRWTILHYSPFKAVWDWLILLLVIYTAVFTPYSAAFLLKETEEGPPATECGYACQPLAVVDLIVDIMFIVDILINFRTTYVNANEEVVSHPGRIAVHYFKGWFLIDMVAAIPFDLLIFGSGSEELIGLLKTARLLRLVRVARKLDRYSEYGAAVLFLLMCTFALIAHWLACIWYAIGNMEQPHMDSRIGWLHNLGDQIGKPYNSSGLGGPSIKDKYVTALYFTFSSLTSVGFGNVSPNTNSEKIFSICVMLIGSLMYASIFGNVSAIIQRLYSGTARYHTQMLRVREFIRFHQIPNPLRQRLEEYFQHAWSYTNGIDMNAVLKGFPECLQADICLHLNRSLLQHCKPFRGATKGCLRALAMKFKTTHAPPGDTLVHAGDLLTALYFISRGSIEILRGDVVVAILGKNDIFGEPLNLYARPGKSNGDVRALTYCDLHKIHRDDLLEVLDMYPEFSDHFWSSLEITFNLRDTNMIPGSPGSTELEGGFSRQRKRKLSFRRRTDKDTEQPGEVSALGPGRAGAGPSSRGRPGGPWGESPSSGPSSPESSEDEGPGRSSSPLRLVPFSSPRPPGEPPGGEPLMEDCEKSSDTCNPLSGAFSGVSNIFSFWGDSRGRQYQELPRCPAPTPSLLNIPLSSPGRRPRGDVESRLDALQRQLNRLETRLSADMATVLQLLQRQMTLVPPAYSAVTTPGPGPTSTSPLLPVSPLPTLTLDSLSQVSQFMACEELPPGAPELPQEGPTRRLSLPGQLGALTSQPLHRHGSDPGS
# ASSAY_TEXT: Test 5: inhibitory activity for hERG channel (whole cell patch clamp, hERG-CHO cells)
# Format: cell-based
# CONDITION_PARAMETERS: hERG-CHO cells, auto patch clamp
This section presents molecules with their documented IC50 values.
API: value field is a number in µM; no unit string.

[
  {
    "MOLECULE": "CCN(CCN1CCC(c2noc3cc(F)ccc23)CC1)C(=O)C(O)C(F)(F)F (centres unmarked) [Example 34]",
    "IC50 [µM]": 7.3
  }
]

Which IC50 value is on record for CCN(CCN1CCC(c2noc3cc(F)ccc23)CC1)C(=O)CCO [Example 17] ?
2.8

Which IC50 value is on record for CCN(CCN1CCC(c2noc3cc(F)ccc23)CC1)C(=O)C1CCCCC1O (centres unmarked) [Example 33] ?
2.2

Which IC50 value is on record for CCN(CCN1CCC(n2ncc3cc(F)ccc32)CC1)C(=O)CCO [Example 2] ?
7.4

Origin of measurements: patent US11339151B2
